# targetSystem: T1, ZFP SBS#716 (synthetic)
# T1 chain: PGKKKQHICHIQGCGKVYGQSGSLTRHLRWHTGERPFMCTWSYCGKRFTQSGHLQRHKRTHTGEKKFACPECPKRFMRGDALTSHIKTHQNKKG
# assay: EMSA
# testContext: tags: MBP fusion
outcomeMeasure: pKd
The value called pKd is obtained by taking minus log10 of the concentration in mol/L.

*Q* # pKd lookup, item TTGGGAGCAC (dsDNA) DNA 1: TTGGGAGCAC DNA 2: GTGCTCCCAA
*A* 6.70
